- study.target: T1, human IL-12Rβ2 (human, UniProt Q99665 24-862)
- T1 construct: Expressed on HEK293T cells transiently transfected with a pcDNA3 plasmid (Genscript clone OHu21785); also called hIL-12RB2; IL-12 receptor β2 subunit
- T1 sequence: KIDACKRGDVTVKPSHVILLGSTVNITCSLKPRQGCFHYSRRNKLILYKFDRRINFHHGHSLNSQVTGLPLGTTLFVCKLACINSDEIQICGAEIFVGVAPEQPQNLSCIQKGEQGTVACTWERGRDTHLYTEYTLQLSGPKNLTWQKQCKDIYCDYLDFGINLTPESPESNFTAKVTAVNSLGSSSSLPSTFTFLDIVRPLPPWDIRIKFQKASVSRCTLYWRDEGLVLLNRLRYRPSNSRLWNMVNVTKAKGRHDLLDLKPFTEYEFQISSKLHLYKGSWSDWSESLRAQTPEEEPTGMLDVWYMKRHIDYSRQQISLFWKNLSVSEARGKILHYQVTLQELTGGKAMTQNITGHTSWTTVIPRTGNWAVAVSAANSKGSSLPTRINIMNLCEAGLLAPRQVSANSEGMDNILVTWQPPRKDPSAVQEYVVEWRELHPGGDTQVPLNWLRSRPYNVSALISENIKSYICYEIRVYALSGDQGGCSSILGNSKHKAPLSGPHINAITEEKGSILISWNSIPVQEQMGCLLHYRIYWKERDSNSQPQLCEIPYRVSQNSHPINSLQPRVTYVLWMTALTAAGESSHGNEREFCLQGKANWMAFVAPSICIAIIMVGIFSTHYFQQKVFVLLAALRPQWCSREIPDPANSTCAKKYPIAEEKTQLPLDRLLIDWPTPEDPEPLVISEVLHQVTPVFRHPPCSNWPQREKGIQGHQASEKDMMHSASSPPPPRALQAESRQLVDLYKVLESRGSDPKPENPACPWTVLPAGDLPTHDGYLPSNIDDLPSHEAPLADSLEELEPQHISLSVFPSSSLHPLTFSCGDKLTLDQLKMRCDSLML
- method.notes: flow cytometry, P.E. on transfected HEK293T cells
test.readout: % cells bound

1. anti-IL-12Rβ2 VHH clone 3CRHM35 (VHH, not shown: small tags and cut ends, periplasmic extract; also called 21057) VHH: QVQLQESGGGLVQAGGSLRLSCAASGRTFSNYAMAWFRQAPGTEREFVAGLSGSGGDTAFYDNSVMGRFTISRDSAKNTMWLQINNLKPEDTAVYYCAAATHVVVNYGLVRRRGTYDYWGQGTQVTVSS | 37.3%
2. anti-IL-12Rβ2 VHH clone 3CAH60 (VHH, not shown: small tags and cut ends, periplasmic extract; also called 20361) VHH: QVQLQESGGGLVQPGGSLILSCVASGFAMDYLTMGWSREAPRNEREDISCIDTSGRSTDYLDSVKGRFTISRDNAKNTLYLHMNDLKPEDTAEYYCLASTSYCGAGYEYRGQGTQVTVSS | 0.1%
3. anti-IL-12Rβ2 VHH clone 3CAHS124 (VHH, not shown: small tags and cut ends, periplasmic extract) VHH: QVQLQESGGGLVQPGGSLRLSCAASGRTINAYIMGWFRQAPGKEREFVAAVSGSGGSTYYADSVKGRFTISRDNAKNTVNLQMDNLRSEDTDVYYCAATYESVYLQNPGQYDYWGQGTQVTVSS | 46.3%
4. anti-IL-12Rβ2 VHH clone 3CRHS9 (VHH, not shown: small tags and cut ends, periplasmic extract) VHH: QVQLQESGGGLVQPGGSLRLSCTASGSIVSIYNMDWYRQAPGNEREWVASITSSGDPYYDGSAKGRFTISRDNAKMTVYLQMNSLKPEDTAVYYCKVPTEKGNYWGQGTQVTVSS | 42.1%
5. anti-IL-12Rβ2 VHH clone 3CRH67 (VHH, not shown: small tags and cut ends, periplasmic extract) VHH: QVQLQESGGGLVQAGGSLVLSCAASGSAALIFLMSWYRQAPGKQRELVAEVSRYGSTTYADSVEGRFTISRDNAKNIVDLQMNSLKPEDTAAYYCKADQYYGDSLRSSWGRGTQVTVSS | 35.1%
6. anti-IL-12Rβ2 VHH clone 3CRH59 (VHH, not shown: small tags and cut ends, periplasmic extract) VHH: QVQLQESGGGLVQPGGSLRLSCTASGFAFSSYWMYWVRQTPGKGFEWVSVVNPGGEITYYGDSMEDRFTISRDNAKNTLYLQMNSLKPEDTGLYYCARDRTTIDYTRTYYRGGQGTQVTVSS | 46.1%
7. anti-IL-12Rβ2 VHH clone 3CAH34 (VHH, not shown: small tags and cut ends, periplasmic extract; also called 20358) VHH: QVQLQESGGGSVQPGGSLRLSCGASGFTFSSFGMHWFRQAPGKGQEWAATISSSGGTTYYSDSVKGRFTISRDNAKNTLYLQMNSLKPEDTALYYCARDVTGAVRGQGTQVTVSS | 34.6%
8. anti-IL-12Rβ2 VHH clone 3CRH93 (VHH, not shown: small tags and cut ends, periplasmic extract) VHH: QVQLQESGGGLVQAGGSLRLSCAASGRTVDSYAMGWFRQTPGKEREFVAASWGGGSTYYADSVKGRFTISRDNVKNTMYLQMDSLKPEDTAVYYCAAGPTYYSGPINDNWEGRYDSWGQGTQVTVSS | 31.5%
9. anti-IL-12Rβ2 VHH clone 3CRHS100 (VHH, not shown: small tags and cut ends, periplasmic extract) VHH: QVQLQESGGGLVQPGGSLRLSCTASGSIFSIYNMDWYRQAPGNQREWVASITPSGDPYYDDSAKGRFTISRDNAKMTVYLQMNSLKPEDTAVYYCKVPTEKGNYWGQGTQVTVSS | 43.2%
10. anti-IL-12Rβ2 VHH clone 3CRH45 (VHH, not shown: small tags and cut ends, periplasmic extract) VHH: QVQLQESGGGLVQPGGSLRLSCAASGFTFSTFGMHWFRQAPGKGLEWVSSIGIIDDNSYYASSVKGRFTISRDNAKNTLYLQMNSLKSEDTAVYYCSKDTTGSSRGQGTQVTVSS | 37.6%
11. anti-IL-12Rβ2 VHH clone 3CRHS54 (VHH, not shown: small tags and cut ends, periplasmic extract) VHH: QVQLQESGGGLVQPGGSLRLSCTASGSIVSIYNMDWYRQAPGNEREWVASITSSGDPYYDGSAKGRFTISRDNAKMTVYLQMNSLEPEDTAVYFCKVPTEKGNYWGQGTQVTVSS | 41.5%
